# Target Desc: FTO (Homo sapiens, UniProt Q9C0B1)
# Sequence (Q9C0B1 whole entry): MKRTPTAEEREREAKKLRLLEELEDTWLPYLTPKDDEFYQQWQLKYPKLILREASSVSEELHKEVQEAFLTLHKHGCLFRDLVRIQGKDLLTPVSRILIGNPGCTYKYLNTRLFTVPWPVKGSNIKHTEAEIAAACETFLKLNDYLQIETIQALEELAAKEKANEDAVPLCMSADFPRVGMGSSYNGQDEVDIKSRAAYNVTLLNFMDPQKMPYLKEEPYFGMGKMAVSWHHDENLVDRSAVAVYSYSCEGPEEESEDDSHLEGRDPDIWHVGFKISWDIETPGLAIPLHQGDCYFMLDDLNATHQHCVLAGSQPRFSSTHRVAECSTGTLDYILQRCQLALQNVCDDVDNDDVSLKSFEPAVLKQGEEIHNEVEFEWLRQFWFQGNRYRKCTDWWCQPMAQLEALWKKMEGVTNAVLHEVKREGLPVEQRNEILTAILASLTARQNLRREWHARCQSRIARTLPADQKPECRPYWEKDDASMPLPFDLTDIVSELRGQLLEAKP
Measure Name: pKi
Answers are plain numbers, as −log10 of the molar value.

Reported pKi for Cc1ccc(Cl)c(Nc2ccccc2C(=O)O)c1Cl was 5.98

###

# Target Desc: UniProtKB Q6P6C2
# Sequence (Q6P6C2 whole entry, species assumed): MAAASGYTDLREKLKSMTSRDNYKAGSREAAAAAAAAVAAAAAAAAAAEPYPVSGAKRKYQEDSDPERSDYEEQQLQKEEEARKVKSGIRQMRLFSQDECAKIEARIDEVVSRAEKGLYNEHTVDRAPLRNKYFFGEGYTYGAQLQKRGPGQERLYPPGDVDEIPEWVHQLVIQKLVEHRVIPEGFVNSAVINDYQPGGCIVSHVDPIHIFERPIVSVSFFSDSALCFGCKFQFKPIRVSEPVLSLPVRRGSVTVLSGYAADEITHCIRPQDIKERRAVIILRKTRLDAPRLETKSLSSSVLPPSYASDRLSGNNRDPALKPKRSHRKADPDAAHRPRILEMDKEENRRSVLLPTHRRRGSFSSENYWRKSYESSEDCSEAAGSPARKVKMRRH
# Protocol Text: m^6A7-Broccoli-based ALKBH5 demethylation assay
pIC50: −log10 of the molar value.
Measure Name: pIC50

Reported pIC50 for Cc1ccc(Cl)c(Nc2ccccc2C(=O)O)c1Cl was < 4.70
